Target: T1, 4H452-AA
T1 chain: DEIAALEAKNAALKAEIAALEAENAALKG
Assay: two-hybrid library CCmax;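 also: natural log of median RNA to DNA barcode read ratio; higher means stronger binding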
Settings: mean of both orientations
The entries below are paired with their reported interaction score.
Response field accepts a number only; no unit should be typed.

Consider the worked cases shown below.
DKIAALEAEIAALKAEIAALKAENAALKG [4H2124-AA]	-1.95
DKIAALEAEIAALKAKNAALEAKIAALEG [4H2165-AA]	-1.51

Record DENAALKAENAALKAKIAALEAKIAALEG [4H1765-AA] , field interaction score: -1.48
